Reference source: a melting point compilation (Tetko et al.; mined from patent text by program, amines drawn as free bases though some values may be those of a salt)

I'd be grateful if you could share measured melting point for these entries.

Input: Supply reported melting point belonging to this compound: "COc1ccc(-c2sc3cc(OC)ccc3c2C#N)cc1"
Output: 142 to 143 °C

Input: Read the entry "OCc1cc2occc2cn1" and write its reported melting point.
Output: 72 to 74 °C

Input: Fill in reported melting point for this entry: "CCOCCOc1c(Cl)c(Sc2ccccc2N)c(OCCOCC)c2c1C(=N)NC2=N"
Output: 114 to 116 °C

Input: Check the records and state melting point for "CC1(C)OC(=S)Nc2ccc(-c3ccccc3F)cc21"
Output: 171 to 173 °C

Input: Give me measured melting point, please, for this compound: "CCOC(=O)Cn1cc(Cc2nc3c(F)c(F)cc(F)c3s2)c2ccc(CC)nc21"
Output: 114 to 115 °C

Input: Give reported melting point value for C=CCc1cc(CC(N)=O)ccc1OCC(O)CNCCC(=O)OCC (stereo not drawn)
Output: 98 °C

Input: // fetch melting point given entry "C=CCc1cc(Cl)cc2nc(Cc3ccc(OC)c(OC4CCCC4)c3)oc12"
Output: 43 to 44 °C

Input: Annotate the compound "C[Si](C)(C)c1ccc2cc(C(=O)Nc3ccc(N4CCC4)nc3)n(Cc3cccc(F)c3)c2c1" with its measured melting point.
Output: 208 to 210 °C

Input: Provide measured melting point value, entry: "COC(=O)c1ccc(NCc2ccc(Cl)c(Cl)c2)cn1"
Output: 158 to 161 °C

Input: Let me know recorded melting point for "O=S1(=O)CCc2nn(-c3ccc(Cl)cc3)c(Br)c2C1" , thanks.
Output: 138 to 145 °C

Input: Fill in melting point for record "CSCCOC(=O)N(C)c1nnc(-c2cccnc2)s1"
Output: 126 to 128 °C

Input: Output melting point of "COc1cc2nc(N3CCN(c4ccc(Cl)ccc4=O)CC3)nc(N)c2cc1OC"
Output: 202 to 204 °C

Input: Provide one value: measured melting point of "COc1cc2c(=O)oc(=O)[nH]c2c(OC)c1OC"
Output: 247 °C

----------
For each of the molecules below, state its melting point.

Input: State its melting point: "CC(=O)c1cc(N2CCOCC2)ccc1NC(=O)c1ccccc1OCc1ccccc1"
Output: 144 to 146 °C

Input: Please indicate melting point recorded for CCC1(CCCCN2CCN(c3ccc(Cl)cc3)CC2)C(=O)Nc2c(Cl)cc(Cl)cc21 (stereo not given)
Output: 152 to 154 °C

Input: // fetch melting point given entry "COc1ccc2c(=O)cc(-c3nc4ccccc4[nH]3)oc2c1"
Output: 201 to 203 °C

Input: Give the value of melting point reported for the following: "CCCCNc1cc(C)nc2cn[nH]c12"
Output: 160 to 170 °C

Input: Tell me melting point reported for CCn1ncc(C(=O)c2ccc(S(C)(=O)=O)c(N3CCOC(O)C3)c2Cl)c1O (stereo not given)
Output: 209 to 210 °C

----------
Please respond with reported melting point for every item in the list.

Input: Please give the documented melting point of "COC(=O)c1ccc(OCCCl)cc1"
Output: 56 to 58 °C

Input: # return recorded melting point for entry CCOCc1nc2cnc3cc(O)ccc3c2n1CC1COC(C)(C)O1 (stereo not given)
Output: 239 to 240 °C

Input: Give the reported value of melting point for this record: "CCCCCCCCCCOc1ccc(Oc2cccc(C(=O)O)c2)cc1CCC(=O)O"
Output: 102 to 104 °C

Input: Return the recorded melting point value; entry: "CC1=C(CNC(=O)NCCCN(C)C)c2cc(F)ccc2/C1=C\c1ccc(S(C)(=O)=O)cc1"
Output: 147 °C

Input: Fill in melting point for record "CC(C)[Si](C#Cc1ccc2c(c1)c1cccc3c1c2c1cccc2c4cc(C#C[Si](C(C)C)(C(C)C)C(C)C)ccc4c3c21)(C(C)C)C(C)C"
Output: > 300 °C

Input: Give the value of melting point reported for the following: CC#CCOc1ccc(S(=O)(=O)C(C(=O)OCC)C2CCN(C(=O)c3ccccc3)CC2)cc1 (stereo not given)
Output: 120 °C

Input: Item COC(=O)CCCCC(O)c1ccc2c(c1)CCCC2 (stereo not given) : provide melting point
Output: 107 to 108 °C

Input: Respond only with melting point recorded for "COc1ccc(CC(=O)NO[C@@H](C)c2ccccc2)cc1"
Output: 60 to 61 °C

Input: Please list melting point recorded for the compound "FC(F)(c1ccccc1)C(F)(F)c1ccccc1CBr"
Output: 70 to 77 °C

Input: Give melting point for the following compound: "Cn1cc(C2=C(c3cn(CCCNC(N)=O)c4ccccc34)C(=O)NC2=O)c2ccccc21"
Output: 248 to 250 °C

----------
Please go through the items and note down their melting point.

Input: Read off the recorded melting point for CCCCC(CC)C(=O)Nc1ccc2ccn(Cc3ccc(C(=O)OC)c4ccoc34)c2c1 (centres undefined)
Output: 164 to 167 °C

Input: Answer with the recorded melting point of "CO[C@H](C)C(=O)N[C@H]1CC[C@H](CCN2CCN(c3nccc4c3CCO4)CC2)CC1" only.
Output: 159 °C

Input: Let me know recorded melting point for "CCC(=O)NCCc1c[nH]c2ccc(OCc3ccccc3)cc12" , thanks.
Output: 110 to 112 °C

Input: State its melting point for this compound: "O=C(C=Cc1ccc(C(F)(F)F)cc1)N1CCC(O)CC1"
Output: 124 to 135 °C

Input: In one line, give reported melting point of the entry "CC(C)COc1ccc(Br)cc1OCC(C)C" .
Output: 47 °C

Input: Using known records, supply melting point for Cc1ccc(C)c(NC(=O)N2CCC(c3nc(C4=NOC(c5ccccc5)C4)cs3)CC2)c1 (centres undefined)
Output: 124 to 127 °C

Input: Please give measured melting point of the following entry: "O=C(Nc1cccc(C(F)(F)F)c1)c1ccccc1C(c1ccc(O)cc1)c1ccc(O)cc1"
Output: 198 to 200 °C

Input: Give me measured melting point, please, for this compound: "COCCOc1cc(N(C)S(=O)(=O)c2ccccn2)c2[nH]c(C3=N[C@@H](CO)CS3)cc2c1"
Output: 147 °C

Input: Name the recorded melting point of the item "O=c1[nH][nH]c(=O)c2c(O)c3ccc(I)cc3nc12" in your answer.
Output: 243 to 244 °C

----------
So I've got a bunch of molecules here, and I need their melting point values.

Input: Identify the reported melting point for the following entry. "CCOC(=O)c1c2ccc(Cl)cc2c(-c2ccccc2)n1CCCN(CC)C(C)=O"
Output: 102 to 104 °C

Input: Report measured melting point; entry is CC(=O)Nc1ccc(S(=O)(=O)NCC(O)(Cn2cncn2)c2ccc(Cl)cc2Cl)cc1 (stereo not drawn)
Output: 232 to 233 °C

Input: Specify melting point for "COCCNS(=O)(=O)c1ccc(Nc2nccc(-c3sc(-c4cccnc4)nc3C)n2)cc1" and stop.
Output: 252 to 254 °C

Input: Report melting point for COC(=O)C1(CCCN2CCN(c3ccc(O)cc3)CC2)Sc2cc(OC)ccc2CCC1O (stereo not drawn)
Output: 120 to 124 °C

Input: Dear colleague, please send me the reported melting point for "Cc1nc(C)c(C(=O)CBr)[nH]1" when you can.
Output: 128 to 132 °C

Input: Return melting point (reported value) for this molecule: CN(C=O)c1ccc(C2OC(C)(C)N=C2c2ccccc2)cc1 (stereo not drawn)
Output: 104 to 105 °C

Input: Recall and state the measured melting point for CCC1C(C)=NN=C(c2ccc(OC)c(OC)c2)c2cc(OC)c(O)cc21 (stereo not drawn) .
Output: 210 to 212 °C

Input: Annotate the molecule "CC(=O)Nc1c(C(=O)c2cccc(Cl)c2)[nH]c2cc(Cl)ccc12" with its measured melting point.
Output: 152 to 154 °C

Input: Fill in reported melting point for this entry: "C=C(CC1(CC)C(=O)CCC1=O)C1=CCCc2cc(OC)ccc21"
Output: 100 to 125 °C

Input: Give a short answer stating reported melting point for "CCOC(=O)C(=O)Nc1ccc2[nH]c(=O)oc2c1" .
Output: 180 to 186 °C

Input: Give reported melting point value for ON=C1CCc2c(cccc2OCC(O)CN2CCN(C(c3ccccc3)c3ccccc3)CC2)C1 (stereo not drawn)
Output: 177 °C

Input: # return recorded melting point for entry "CCOCc1nnc2c(C)c(Cl)ccn12"
Output: 92.9 °C

Input: Identify measured melting point associated with "Cc1ccc(C(=O)N(C(C)C)C(C)C)c(C(=O)O)c1F"
Output: 147 to 149 °C

----------
Kindly state melting point for each of the entries shown.

Input: Give a short answer stating reported melting point for "CC(=O)OC1(c2ccccc2)C=CC(=O)C=C1" .
Output: 100 to 101 °C

Input: Note down melting point recorded for COc1ccc(Cl)cc1C1OC(=O)N(C(C)=O)C1=O (configuration not stated)
Output: 161 to 164 °C

Input: Look up and state reported melting point for "O=C(Nc1ccc2[nH]ncc2c1)c1ccccc1NCC1CCOCC1"
Output: 174 °C

Input: Read the entry "COc1cc(C(=O)NS(=O)(=O)c2ccccc2)ccc1Cn1ncc2ccc(NC(=O)CC3CCCC3)cc21" and write its reported melting point.
Output: 167 to 169 °C

Input: State its melting point: "COc1ccc(C=NNc2ccc(S(N)(=O)=O)cc2)cc1"
Output: 228 to 231 °C

Input: Look up melting point of "COc1ccc(OC)c(Cc2c(C)c3c(N)nc(N)nc3[nH]c2=O)c1" and report it.
Output: 325 to 326 °C

Input: Using the record for "NS(=O)(=O)c1cc(C(=O)CCCC(=O)O)cc2c1OCC2" , state its measured melting point.
Output: 207 to 209 °C
